- Tested on: LXFL 529 NSCLC
- method.summary: NCI tumour cell line growth inhibition, 48 h
quantity: TGI (µM)
Answer with a number only, understood to be in µM.

As a guide, the following entries are already answered.
**Query** Any idea what TGI came out for CC12OOC(c3ccccc31)c1c2ccc2ccccc12 (stereo not given) on LXFL 529 NSCLC?
**Result** 4.81

**Query** Consider next the compound COc1ccccc1NC(=O)C1=C(C)NC(C)=C(C(=O)Nc2ccccc2OC)C1C1=CC=COC1 in the same way.
**Result** 80

Now look at this one.
**Query** Any idea what TGI came out for CCN(CC)CC(C)(C)C(=O)/C=C/c1cccc(/C=C/C(=O)C(C)(C)CN(CC)CC)c1 on LXFL 529 NSCLC?
**Result** 1.13
